# Target: recombinant human Nav1.7 (Homo sapiens (Human))
# Assay Text: FRET-based membrane potential assay, recombinant human sodium channel Nav1.7
# Format: cell-based
# Applied Conditions: HEK293 cells stably expressing recombinant human Nav1.7; veratridine + scorpion venom depolarization; read-out: FRET-Membrane Potential Nav1.7 IC50
pIC50: −log10 of the molar value.
Parameter threshold = 5. Response is Met when pIC50 meets or exceeds it, else Not met.

Task item: Reported pIC50 at or above 5? O=C(c1ccc2cc(Oc3ccc(C(F)(F)F)cn3)ccc2n1)N1CCC(=O)N2C[C@@H](O)C[C@H]2C1 [Example 212]
Reply: Not met

Task item: Reported pIC50 at or above 5? O=C(NC1CC(F)C1)c1ccc2cc(Oc3ccc(C(F)(F)F)cn3)ccc2n1 (centres unmarked) [Example 604]
Reply: Met

Task item: Reported pIC50 at or above 5? C[C@@H]1CN(C(=O)c2ccc3cc(Oc4ccc(C(F)(F)F)nc4)ccc3n2)CCN1 [Example 62]
Reply: Met

Task item: Reported pIC50 at or above 5? Cc1c(S(=O)(=O)N2CCN(C(=O)c3ccc4cc(Oc5ccc(C(F)(F)F)cn5)ccc4n3)CC2)cnn1C [Example 390]
Reply: Met

Task item: Reported pIC50 at or above 5? CS[C@H]1CN(C(=O)c2ccc3cc(Oc4ccc(C(F)(F)F)cn4)ccc3n2)C[C@@H]1O [Example 348]
Reply: Met

Task item: Reported pIC50 at or above 5? O=C(c1ccc2cc(Oc3ccc(C(F)(F)F)cn3)ccc2n1)N1CC2(CCNCC2)C1 [Example 232]
Reply: Not met

Task item: Reported pIC50 at or above 5? C[C@@H]1CN(C(=O)c2ccc3cc(Oc4ccc(C(F)F)cn4)ccc3n2)CCN1 [Example 68]
Reply: Met

###

# Target: recombinant human Nav1.7 (Homo sapiens (Human))
# Assay Text: FRET-based membrane potential assay, recombinant human sodium channel Nav1.7
# Format: cell-based
# Applied Conditions: read-out: FRET-Membrane Potential Nav1.7 IC50
Would you mind telling me the reported pIC50 of each entry?
Interpret pIC50 as the negative base-10 log of the concentration measured in mol/L.

Task item: What pIC50 appears in the records for this compound with recombinant human Nav1.7 (Homo sapiens (Human))? O=C(c1ccc2cc(Oc3ccc(C(F)(F)F)cn3)ccc2n1)N1CCN2C[C@@H](F)C[C@H]2C1 [Example 359]
Reply: 5.33

Task item: What pIC50 appears in the records for this compound with recombinant human Nav1.7 (Homo sapiens (Human))? O=C(c1ccc2cc(Oc3ccc(C(F)(F)F)cn3)ccc2n1)N1C[C@@H]2CN[C@@H]2C1 [Example 278]
Reply: 5.43

Task item: What pIC50 appears in the records for this compound with recombinant human Nav1.7 (Homo sapiens (Human))? O=C(NCCC(=O)N1CCCCC1)c1ccc2cc(Oc3ccc(C(F)(F)F)cn3)ccc2n1 [Example 449]
Reply: 6.10

Task item: What pIC50 appears in the records for this compound with recombinant human Nav1.7 (Homo sapiens (Human))? O=C(N[C@H]1CS(=O)(=O)C[C@@H]1O)c1ccc2cc(Oc3ccc(C(F)(F)F)cn3)ccc2n1 [Example 425]
Reply: 5.04

Task item: What pIC50 appears in the records for this compound with recombinant human Nav1.7 (Homo sapiens (Human))? O=C(NCC(=O)N1CCC1)c1ccc2cc(Oc3ccc(C(F)(F)F)cn3)ccc2n1 [Example 571]
Reply: 6.35

Task item: What pIC50 appears in the records for this compound with recombinant human Nav1.7 (Homo sapiens (Human))? CNC(=O)c1ccc2cc(Oc3ccc(C(F)(F)F)cn3)ccc2n1 [Example 527]
Reply: 5.23

Task item: What pIC50 appears in the records for this compound with recombinant human Nav1.7 (Homo sapiens (Human))? C[C@H]1CN(C(=O)c2ccc3cc(Oc4ccc(C(F)(F)F)cn4)ccc3n2)CCN1 [Example 13]
Reply: 6.34

Task item: What pIC50 appears in the records for this compound with recombinant human Nav1.7 (Homo sapiens (Human))? O=C1CC(NC(=O)c2ccc3cc(Oc4ccc(C(F)(F)F)cn4)ccc3n2)CCN1 (centres unmarked) [Example 40]
Reply: 6.55

###

Would you mind telling me the reported IC50 of each entry?
# Target: recombinant human Nav1.7 (Homo sapiens (Human))
# Assay Text: FRET-based membrane potential assay, recombinant human sodium channel Nav1.7
# Type: cell-based
# Applied Conditions: read-out: FRET-Membrane Potential Nav1.7 IC50
The answer is to be given in nM; state only the numeric part.

Task item: Entry O=C(c1ccc2cc(Oc3ccc(C(F)(F)F)cc3)ccc2n1)N1CCNCC1 : reported IC50 = ?
Reply: 902

Task item: Entry O=C(c1ccc2cc(Oc3ccc(C(F)(F)F)cn3)ccc2n1)N1CCOCC1 : reported IC50 = ?
Reply: 12400

Task item: Entry O=C(c1ccc2cc(Oc3ccc(C(F)(F)F)cn3)ccc2n1)N1CCN[C@@H](CO)C1 : reported IC50 = ?
Reply: 3120

Task item: Entry CS(=O)(=O)CCCCNC(=O)c1ccc2cc(Oc3ccc(C(F)(F)F)cn3)ccc2n1 : reported IC50 = ?
Reply: 2930

Task item: Entry CCNS(=O)(=O)N1CCN(C(=O)c2ccc3cc(Oc4ccc(C(F)(F)F)cn4)ccc3n2)CC1 : reported IC50 = ?
Reply: 1010

Task item: Entry C[C@@H]1CN(C(=O)c2ccc3cc(Oc4ccc(C(F)(F)F)cn4)ccc3n2)CCN1 : reported IC50 = ?
Reply: 348

###

Would you mind telling me the reported pIC50 of each entry?
# Target: recombinant human Nav1.7 (Homo sapiens (Human), UniProt Q15858)
# Sequence (Q15858 whole entry): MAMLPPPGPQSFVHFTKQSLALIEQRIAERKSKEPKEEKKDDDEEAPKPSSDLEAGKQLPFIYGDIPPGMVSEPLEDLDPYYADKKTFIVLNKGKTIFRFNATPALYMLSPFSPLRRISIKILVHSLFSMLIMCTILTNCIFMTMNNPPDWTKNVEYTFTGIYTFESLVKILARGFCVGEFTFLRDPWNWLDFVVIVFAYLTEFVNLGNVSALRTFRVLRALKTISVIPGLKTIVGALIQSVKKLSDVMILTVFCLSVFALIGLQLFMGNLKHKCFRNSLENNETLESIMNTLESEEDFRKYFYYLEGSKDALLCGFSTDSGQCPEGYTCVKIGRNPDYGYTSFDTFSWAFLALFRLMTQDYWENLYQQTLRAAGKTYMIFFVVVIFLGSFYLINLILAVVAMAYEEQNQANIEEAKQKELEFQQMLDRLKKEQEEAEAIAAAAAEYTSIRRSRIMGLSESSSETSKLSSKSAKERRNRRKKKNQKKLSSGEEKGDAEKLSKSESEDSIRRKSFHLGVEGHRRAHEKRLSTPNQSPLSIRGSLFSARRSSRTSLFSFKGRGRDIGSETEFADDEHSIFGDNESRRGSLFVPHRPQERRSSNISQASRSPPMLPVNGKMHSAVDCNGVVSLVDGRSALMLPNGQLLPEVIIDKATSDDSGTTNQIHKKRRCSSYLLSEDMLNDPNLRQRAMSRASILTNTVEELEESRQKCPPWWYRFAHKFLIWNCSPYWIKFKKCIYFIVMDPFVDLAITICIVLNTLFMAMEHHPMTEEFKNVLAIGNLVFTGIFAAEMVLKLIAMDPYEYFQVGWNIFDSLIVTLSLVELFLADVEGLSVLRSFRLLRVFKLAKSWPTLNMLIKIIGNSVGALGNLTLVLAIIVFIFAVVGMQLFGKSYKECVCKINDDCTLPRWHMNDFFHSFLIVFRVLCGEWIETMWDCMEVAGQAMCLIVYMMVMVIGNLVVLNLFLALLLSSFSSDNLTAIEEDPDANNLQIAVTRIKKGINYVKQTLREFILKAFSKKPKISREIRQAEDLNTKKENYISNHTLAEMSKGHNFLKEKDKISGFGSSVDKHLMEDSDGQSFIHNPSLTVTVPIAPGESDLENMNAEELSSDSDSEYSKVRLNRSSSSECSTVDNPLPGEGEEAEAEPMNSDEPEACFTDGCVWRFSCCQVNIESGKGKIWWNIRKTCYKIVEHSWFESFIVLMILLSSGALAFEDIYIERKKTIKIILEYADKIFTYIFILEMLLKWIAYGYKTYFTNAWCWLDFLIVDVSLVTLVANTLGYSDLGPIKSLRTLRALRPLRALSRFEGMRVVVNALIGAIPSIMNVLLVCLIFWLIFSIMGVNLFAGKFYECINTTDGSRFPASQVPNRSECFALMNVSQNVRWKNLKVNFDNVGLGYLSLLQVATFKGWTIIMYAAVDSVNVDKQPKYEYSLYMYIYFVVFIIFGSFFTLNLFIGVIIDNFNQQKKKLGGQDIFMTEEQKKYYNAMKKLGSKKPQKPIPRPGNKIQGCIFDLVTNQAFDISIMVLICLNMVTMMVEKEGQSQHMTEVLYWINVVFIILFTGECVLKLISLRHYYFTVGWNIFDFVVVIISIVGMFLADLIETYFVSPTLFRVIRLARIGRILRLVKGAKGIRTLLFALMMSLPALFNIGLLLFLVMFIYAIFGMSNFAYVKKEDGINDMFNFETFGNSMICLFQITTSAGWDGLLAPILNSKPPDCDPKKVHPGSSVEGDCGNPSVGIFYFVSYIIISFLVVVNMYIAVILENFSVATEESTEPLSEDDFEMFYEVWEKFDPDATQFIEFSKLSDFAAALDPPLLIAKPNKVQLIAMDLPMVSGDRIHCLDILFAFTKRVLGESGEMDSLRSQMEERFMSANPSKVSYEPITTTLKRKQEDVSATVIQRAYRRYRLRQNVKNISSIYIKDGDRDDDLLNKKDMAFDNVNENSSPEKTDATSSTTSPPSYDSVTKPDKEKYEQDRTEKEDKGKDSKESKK
# Assay Text: FRET-based membrane potential assay, recombinant human sodium channel Nav1.7
# Assay type: cell-based
# Applied Conditions: HEK293 cells stably expressing recombinant human Nav1.7; veratridine + scorpion venom depolarization; read-out: FRET-Membrane Potential Nav1.7 IC50
Interpret pIC50 as the negative base-10 log of the concentration measured in mol/L.

Task item: Entry O=C1NCC(=O)N2CCN(C(=O)c3ccc4cc(Oc5ccc(C(F)(F)F)cn5)ccc4n3)CC12 (stereo not shown) [Example 171] : reported pIC50 = ?
Reply: 5.10

Task item: Entry O=C(c1ccc2cc(Oc3ccc(C(F)F)cn3)ccc2n1)N1CC[C@H](F)C1 [Example 576] : reported pIC50 = ?
Reply: 5.00

Task item: Entry O=C(c1ccc2cc(Oc3ccc(C(F)(F)F)cn3)ccc2n1)N1CCc2ccncc2C1 [Example 222] : reported pIC50 = ?
Reply: 5.67

Task item: Entry O=C(c1ccc2cc(Oc3ccc(C(F)(F)F)cn3)ccc2n1)N1CCNC2(CC2)C1 [Example 39] : reported pIC50 = ?
Reply: 6.13

###

# Target: recombinant human Nav1.7 (Homo sapiens (Human), UniProt Q15858)
# Assay Text: FRET-based membrane potential assay, recombinant human sodium channel Nav1.7
# Format: cell-based
# Applied Conditions: HEK293 cells stably expressing recombinant human Nav1.7; veratridine + scorpion venom depolarization; read-out: FRET-Membrane Potential Nav1.7 IC50
Would you mind telling me the reported pIC50 of each entry?
Interpret pIC50 as the negative base-10 log of the concentration measured in mol/L.

Task item: Entry N#CC1CCN(C(=O)c2ccc3cc(Oc4ccc(C(F)(F)F)cn4)ccc3n2)CC1 : reported pIC50 = ?
Reply: 5.04

Task item: Entry O=C(c1ccc2cc(Oc3ccc(C(F)(F)F)cn3)ccc2n1)N1CCN(C2CCCCC2)CC1 : reported pIC50 = ?
Reply: 4.86

Task item: Entry N#Cc1ccc(Oc2ccc3nc(C(=O)NCc4cccs4)ccc3c2)cc1 : reported pIC50 = ?
Reply: 5.01

Task item: Entry O=C(NCC1COCCN1Cc1ccccc1)c1ccc2cc(Oc3ccc(C(F)(F)F)cn3)ccc2n1 (stereo not shown) : reported pIC50 = ?
Reply: 5.54

###

# Target: recombinant human Nav1.7 (Homo sapiens (Human))
# Assay Text: FRET-based membrane potential assay, recombinant human sodium channel Nav1.7
# Assay type: cell-based
# Applied Conditions: HEK293 cells stably expressing recombinant human Nav1.7; veratridine + scorpion venom depolarization; read-out: FRET-Membrane Potential Nav1.7 IC50
# Experimental: FRET-Based Membrane Potential Assays. Recombinant, Human Sodium Channel, Nav1.7. On the day of the assay, medium was removed by aspiration, and cells were washed with assay buffer [HBSS (Invitrogen, Carlsbad, Calif.) containing 20 mM HEPES (Invitrogen, Carlsbad, Calif.)]. […] Cells were incubated for 40 minutes at room temperature in the dark. […] Fluorescence readings were made using a FLIPR®^TETRA (Molecular Devices, Sunnyvale Calif.) equipped with voltage-sensor probe optics. […]
Would you mind telling me the reported log10 of IC50 of each entry?
Scale type: logarithmic (base 10). Underlying IC50 unit: µM.

Task item: Entry CCN1CC(NC(=O)c2ccc3cc(Oc4ccc(C(F)(F)F)nc4)ccc3n2)CC1=O (centres unmarked) : reported log10 of IC50 = ?
Reply: -0.45

Task item: Entry CS(=O)(=O)C1CN(C(=O)c2ccc3cc(Oc4ccc(C(F)F)cn4)ccc3n2)C1 : reported log10 of IC50 = ?
Reply: 0.50

Task item: Entry O=C(c1ccc2cc(Oc3ccc(C(F)(F)F)cn3)ccc2n1)N1CCN2CC(F)(F)C[C@H]2C1 : reported log10 of IC50 = ?
Reply: 0.51

Task item: Entry O=C(c1ccc2cc(Oc3ccc(C(F)(F)F)cn3)ccc2n1)N1CCN(c2ncccn2)CC1 : reported log10 of IC50 = ?
Reply: 0.49

Task item: Entry O=C(N[C@@H]1CS(=O)(=O)C[C@H]1O)c1ccc2cc(Oc3ccc(C(F)(F)F)nc3)ccc2n1 : reported log10 of IC50 = ?
Reply: 0.50

Task item: Entry O=C(c1ccc2cc(Oc3ccc(C(F)F)cn3)ccc2n1)N1CCN[C@@H](CO)C1 : reported log10 of IC50 = ?
Reply: 1.10
